System: HS 578T (breast cancer)
Assay: NCI-60 SRB cytotoxicity screen
Type: cell-based
Conditions: Homo sapiens, single dose 10 μM, read-out: growth inhibition (GI%)
PARAMETER: inhibition at 10 µM (%)

# COMPOUND, BOUND_TYPE, RESULT_VALUE
records = [
    ("CCc1cccc2cc(C3C=C(c4ccc(F)cc4)NC(=S)N3)c(Cl)nc12 (centres unmarked)", "<", 10),
    ("CCc1cccc2cc(-c3cc(-c4ccc(F)cc4)[nH]c(=S)c3C#N)c(Cl)nc12", "=", 18.2),
    ("CCc1cccc2cc(-c3cc(-c4cc(OC)c(OC)c(OC)c4)[nH]c(=S)c3C#N)c(Cl)nc12", "=", 32.7),
    ("CCc1cccc2cc(C=CC(=O)c3ccc(Br)cc3)c(Cl)nc12", "<", 10),
    ("CCc1cccc2cc(-c3cc(-c4ccc(OC)cc4)[nH]c(=O)c3C#N)c(Cl)nc12", "=", 14.9),
    ("CCc1cccc2cc(-c3cc(-c4ccc(F)cc4)[nH]c(=O)c3C#N)c(Cl)nc12", "<", 10),
    ("CCc1cccc2cc(C=CC(=O)c3cc(OC)c(OC)c(OC)c3)c(Cl)nc12", "<", 10),
    ("CCc1cccc2cc(-c3cc(-c4ccc(OC)c(OC)c4)[nH]c(=O)c3C#N)c(Cl)nc12", "=", 10.3),
]

====

System: SK-OV-3 (ovarian cancer)
Test: NCI-60 SRB cytotoxicity screen
Type: cell-based
Conditions: Homo sapiens; SK-OV-3, single dose 10 μM; read-out: growth inhibition (GI%)
PARAMETER: inhibition at 10 µM (%)

# COMPOUND, QUANTITY_UNIT, BOUND_TYPE, RESULT_VALUE
records = [
    ("CCc1cccc2cc(C3C=C(c4ccc(Br)cc4)NC(=S)N3)c(Cl)nc12 (centres unmarked)", "%", "=", 10.7),
    ("CCc1cccc2cc(C3C=C(c4cc(OC)c(OC)c(OC)c4)NC(=S)N3)c(Cl)nc12 (centres unmarked)", "%", "<", 10),
    ("CCc1cccc2cc(-c3cc(-c4ccc(Br)cc4)[nH]c(=S)c3C#N)c(Cl)nc12", "%", "=", 11.2),
    ("CCc1cccc2cc(-c3cc(-c4ccc(OC)c(OC)c4)[nH]c(=S)c3C#N)c(Cl)nc12", "%", "<", 10),
    ("CCc1cccc2cc(C3C=C(c4ccc(F)cc4)NC(=S)N3)c(Cl)nc12 (centres unmarked)", "%", "<", 10),
    ("CCc1cccc2cc(C3C=C(c4ccc(OC)cc4)NC(=S)N3)c(Cl)nc12 (centres unmarked)", "%", "=", 14.9),
    ("CCc1cccc2cc(-c3cc(-c4ccc(F)cc4)[nH]c(=S)c3C#N)c(Cl)nc12", "%", "=", 20.9),
    ("CCc1cccc2cc(C=CC(=O)c3cc(OC)c(OC)c(OC)c3)c(Cl)nc12", "%", "=", 17.4),
]

====

Readings of inhibition at 10 µM for the listed molecules
Tested on: HCC-2998 (colon cancer)
Assay: NCI-60 SRB cytotoxicity screen
Type: cell-based
Details: Homo sapiens; HCC-2998, single dose 10 μM; read-out: growth inhibition (GI%)

# MOLECULE, inhibition at 10 µM
records = [
    ("CCc1cccc2cc(C=CC(=O)c3ccc(Br)cc3)c(Cl)nc12 [Compound 3e]", "< 10%"),
    ("CCc1cccc2cc(C=CC(=O)c3cc(OC)c(OC)c(OC)c3)c(Cl)nc12 [Compound 3c]", "63.8%"),
    ("CCc1cccc2cc(-c3cc(-c4ccc(OC)cc4)[nH]c(=S)c3C#N)c(Cl)nc12 [Compound 5a]", "< 10%"),
    ("CCc1cccc2cc(-c3cc(-c4ccc(Br)cc4)[nH]c(=O)c3C#N)c(Cl)nc12 [Compound 4e]", "< 10%"),
    ("CCc1cccc2cc(C3C=C(c4ccc(OC)c(OC)c4)NC(=S)N3)c(Cl)nc12 (centres unmarked) [Compound 6b]", "< 10%"),
    ("CCc1cccc2cc(-c3cc(-c4ccc(OC)cc4)[nH]c(=O)c3C#N)c(Cl)nc12 [Compound 4a]", "< 10%"),
    ("CCc1cccc2cc(C3C=C(c4ccc(OC)cc4)NC(=S)N3)c(Cl)nc12 (centres unmarked) [Compound 6a]", "< 10%"),
    ("CCc1cccc2cc(C=CC(=O)c3ccc(OC)c(OC)c3)c(Cl)nc12 [Compound 3b]", "17.7%"),
]

====

Tested on: UACC-62 (melanoma)
Test: NCI-60 SRB cytotoxicity screen
Format: cell-based
Conditions: Homo sapiens; UACC-62, single dose 10 μM; read-out: growth inhibition (GI%)

# MOLECULE, inhibition at 10 µM
data = [
    ("CCc1cccc2cc(C3C=C(c4ccc(Br)cc4)NC(=S)N3)c(Cl)nc12 (stereo not drawn) [Compound 6e]", "< 10%"),
    ("CCc1cccc2cc(C3C=C(c4ccc(F)cc4)NC(=S)N3)c(Cl)nc12 (stereo not drawn) [Compound 6d]", "14.2%"),
    ("CCc1cccc2cc(-c3cc(-c4ccc(OC)cc4)[nH]c(=O)c3C#N)c(Cl)nc12 [Compound 4a]", "< 10%"),
]

====

System: SR (leukemia)
Assay: NCI-60 SRB cytotoxicity screen
Format: cell-based
Settings: single dose 10 μM, read-out: growth inhibition (GI%)
Each entry below carries its recorded inhibition at 10 µM.
PARAMETER: inhibition at 10 µM

# MOLECULE, RESULT_VALUE
measured = [
    ("CCc1cccc2cc(-c3cc(-c4ccc(OC)cc4)[nH]c(=S)c3C#N)c(Cl)nc12 [Compound 5a]", "11.6%"),
    ("CCc1cccc2cc(-c3cc(-c4ccc(OC)c(OC)c4)[nH]c(=S)c3C#N)c(Cl)nc12 [Compound 5b]", "< 10%"),
    ("CCc1cccc2cc(C=CC(=O)c3ccc(OC)cc3)c(Cl)nc12 [Compound 3a]", "38.4%"),
    ("CCc1cccc2cc(-c3cc(-c4cc(OC)c(OC)c(OC)c4)[nH]c(=S)c3C#N)c(Cl)nc12 [Compound 5c]", "49%"),
    ("CCc1cccc2cc(C=CC(=O)c3cc(OC)c(OC)c(OC)c3)c(Cl)nc12 [Compound 3c]", "61.5%"),
    ("CCc1cccc2cc(-c3cc(-c4ccc(OC)c(OC)c4)[nH]c(=O)c3C#N)c(Cl)nc12 [Compound 4b]", "< 10%"),
]

====

Tested on: NCI-H322M (non-small cell lung cancer)
Assay: NCI-60 SRB cytotoxicity screen
Format: cell-based
Conditions: Homo sapiens, single dose 10 μM, read-out: growth inhibition (GI%)

# COMPOUND, inhibition at 10 µM
measured = [
    ("CCc1cccc2cc(C3C=C(c4ccc(OC)cc4)NC(=S)N3)c(Cl)nc12 (stereo not shown)", "< 10%"),
    ("CCc1cccc2cc(-c3cc(-c4cc(OC)c(OC)c(OC)c4)[nH]c(=O)c3C#N)c(Cl)nc12", "53.7%"),
    ("CCc1cccc2cc(-c3cc(-c4ccc(Br)cc4)[nH]c(=S)c3C#N)c(Cl)nc12", "< 10%"),
    ("CCc1cccc2cc(C=CC(=O)c3ccc(Br)cc3)c(Cl)nc12", "< 10%"),
]

====

Tested on: CAKI-1 (renal cancer)
Assay: NCI-60 SRB cytotoxicity screen
Type: cell-based
Details: Homo sapiens; CAKI-1, single dose 10 μM; read-out: growth inhibition (GI%)
In this section we review reported inhibition at 10 µM values for a set of molecules.
PARAMETER: inhibition at 10 µM (%)

# SMILES_ENTRY, PARAMETER, RESULT_VALUE
records = [
    ("CCc1cccc2cc(-c3cc(-c4ccc(OC)cc4)[nH]c(=S)c3C#N)c(Cl)nc12", "inhibition at 10 µM", 44.7),
    ("CCc1cccc2cc(-c3cc(-c4ccc(F)cc4)[nH]c(=O)c3C#N)c(Cl)nc12", "inhibition at 10 µM", 19.5),
    ("CCc1cccc2cc(C=CC(=O)c3cc(OC)c(OC)c(OC)c3)c(Cl)nc12", "inhibition at 10 µM", 38.7),
]

====

In this section we review reported inhibition at 10 µM values for a set of compounds.
Tested on: OVCAR-3 (ovarian cancer)
Experiment: NCI-60 SRB cytotoxicity screen
Assay type: cell-based
Conditions: Homo sapiens; OVCAR-3, single dose 10 μM; read-out: growth inhibition (GI%)
PARAMETER: inhibition at 10 µM

# COMPOUND, SUBJECT_OF_TEST, RESULT_VALUE
records = [
    ("CCc1cccc2cc(-c3cc(-c4cc(OC)c(OC)c(OC)c4)[nH]c(=S)c3C#N)c(Cl)nc12", "OVCAR-3 (ovarian cancer)", "16.9%"),
    ("CCc1cccc2cc(-c3cc(-c4ccc(OC)cc4)[nH]c(=O)c3C#N)c(Cl)nc12", "OVCAR-3 (ovarian cancer)", "< 10%"),
    ("CCc1cccc2cc(C=CC(=O)c3ccc(F)cc3)c(Cl)nc12", "OVCAR-3 (ovarian cancer)", "< 10%"),
    ("CCc1cccc2cc(C3C=C(c4cc(OC)c(OC)c(OC)c4)NC(=S)N3)c(Cl)nc12 (stereo not drawn)", "OVCAR-3 (ovarian cancer)", "14.2%"),
    ("CCc1cccc2cc(-c3cc(-c4ccc(OC)cc4)[nH]c(=S)c3C#N)c(Cl)nc12", "OVCAR-3 (ovarian cancer)", "< 10%"),
    ("CCc1cccc2cc(-c3cc(-c4ccc(OC)c(OC)c4)[nH]c(=O)c3C#N)c(Cl)nc12", "OVCAR-3 (ovarian cancer)", "< 10%"),
    ("CCc1cccc2cc(C=CC(=O)c3ccc(Br)cc3)c(Cl)nc12", "OVCAR-3 (ovarian cancer)", "< 10%"),
    ("CCc1cccc2cc(C=CC(=O)c3cc(OC)c(OC)c(OC)c3)c(Cl)nc12", "OVCAR-3 (ovarian cancer)", "> 100%"),
    ("CCc1cccc2cc(C=CC(=O)c3ccc(OC)c(OC)c3)c(Cl)nc12", "OVCAR-3 (ovarian cancer)", "31.7%"),
    ("CCc1cccc2cc(-c3cc(-c4ccc(OC)c(OC)c4)[nH]c(=S)c3C#N)c(Cl)nc12", "OVCAR-3 (ovarian cancer)", "< 10%"),
    ("CCc1cccc2cc(-c3cc(-c4ccc(Br)cc4)[nH]c(=S)c3C#N)c(Cl)nc12", "OVCAR-3 (ovarian cancer)", "< 10%"),
    ("CCc1cccc2cc(C3C=C(c4ccc(Br)cc4)NC(=S)N3)c(Cl)nc12 (stereo not drawn)", "OVCAR-3 (ovarian cancer)", "< 10%"),
    ("CCc1cccc2cc(C=CC(=O)c3ccc(OC)cc3)c(Cl)nc12", "OVCAR-3 (ovarian cancer)", "< 10%"),
    ("CCc1cccc2cc(C3C=C(c4ccc(OC)cc4)NC(=S)N3)c(Cl)nc12 (stereo not drawn)", "OVCAR-3 (ovarian cancer)", "< 10%"),
    ("CCc1cccc2cc(-c3cc(-c4cc(OC)c(OC)c(OC)c4)[nH]c(=O)c3C#N)c(Cl)nc12", "OVCAR-3 (ovarian cancer)", "> 100%"),
]
